# SYSTEM UNDER TEST: Human recombinant Rho kinase (ROKα/ROCK-II, (aa 11-552)) (Homo sapiens, UniProt O75116)
# Construct: Human recombinant Rho kinase (ROKα/ROCK-II, (aa 11-552), human active)
# Sequence (O75116 11-552): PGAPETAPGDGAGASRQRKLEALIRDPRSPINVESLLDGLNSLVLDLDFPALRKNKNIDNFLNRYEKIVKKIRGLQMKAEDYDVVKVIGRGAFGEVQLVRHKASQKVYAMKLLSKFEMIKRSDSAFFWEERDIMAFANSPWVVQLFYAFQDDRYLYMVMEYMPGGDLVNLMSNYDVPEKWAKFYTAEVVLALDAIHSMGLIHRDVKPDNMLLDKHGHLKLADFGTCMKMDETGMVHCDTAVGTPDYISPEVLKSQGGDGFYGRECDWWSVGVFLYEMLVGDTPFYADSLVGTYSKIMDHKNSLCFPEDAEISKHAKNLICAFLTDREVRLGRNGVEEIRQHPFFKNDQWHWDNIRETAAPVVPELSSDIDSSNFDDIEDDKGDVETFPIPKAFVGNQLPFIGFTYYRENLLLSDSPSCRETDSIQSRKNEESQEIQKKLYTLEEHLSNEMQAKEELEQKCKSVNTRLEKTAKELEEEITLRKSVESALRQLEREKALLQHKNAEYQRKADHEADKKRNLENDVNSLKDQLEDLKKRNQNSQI
# PROCEDURE DETAILS: Rho kinase II (ROCK II) IMAP fluorescence polarization inhibition assay
# CONDITION DETAILS: IMAP ROCK II kit; substrate 200 nM, ATP 10 μM; 60 min at 23° C.; read-out: Rho kinase II Binding Data IC50
Where a name gives a salt, the structure may show the parent alone.
Task for the reader: assign each of the following molecules its reported pIC50.
One number for each entry, as −log10 of the molar value.

Below are worked cases with known answers.
{"MOLECULE": "Cc1n[nH]c2ccc(-c3cncc(NC[C@@H](N)Cc4ccccc4)n3)cc12 [Example 1, dihydrochloride]", "pIC50": 6.72}
{"MOLECULE": "Cc1n[nH]c2ccc(-c3cncc(NC[C@@H](N)Cc4ccccc4)n3)cc12 (single isomer, unassigned) [Example 2]", "pIC50": 7.24}

Could you now look at the following molecule, please?
For Cc1n[nH]c2ccc(-c3cncc(NCC(N)Cc4cc5ccccc5[nH]4)n3)cc12 (stereo not drawn) on Human recombinant Rho kinase (ROKα/ROCK-II, (aa 11-552)) (Homo sapiens, UniProt O75116), measured pIC50 was 6.23
